target: Protein farnesyltransferase (PFT) (Plasmodium falciparum) (UniProt Q5EI73+Q5EI74); assay: Inhibition of Plasmodium falciparum PFT at 50 nM
readout: inhibition (%)
Field: numeric (%). Do not append units.

{"smilesRecord": "Cc1cccc(CN(CCN(Cc2cncn2C)c2ccc(C#N)cc2)S(=O)(=O)c2cn(C)cn2)c1", "inhibition, %": 94}
{"smilesRecord": "Cn1cnc(S(=O)(=O)N(CCN(Cc2cncn2C)c2ccc(C#N)cc2)Cc2ccncc2)c1", "inhibition, %": 62}
{"smilesRecord": "Cn1cncc1CN(CCN(Cc1ccccc1)S(=O)(=O)c1ccccc1)c1ccc(C#N)cc1", "inhibition, %": 69}
{"smilesRecord": "Cn1cnc(S(=O)(=O)N(CCN(Cc2cncn2C)c2ccc(C#N)cc2)Cc2cccc(C#N)c2)c1", "inhibition, %": 89}
{"smilesRecord": "Cn1cnc(S(=O)(=O)N(CCN(Cc2cncn2C)c2ccc(C#N)cc2)Cc2cccc(-c3ccccc3)c2)c1", "inhibition, %": 93}
{"smilesRecord": "Cn1cnc(S(=O)(=O)N(CCN(Cc2cncn2C)c2ccc(C#N)cc2)Cc2cccc(-n3cccc3)c2)c1", "inhibition, %": 74}
{"smilesRecord": "Cn1cnc(S(=O)(=O)N(CCN(Cc2cncn2C)c2ccc(C#N)cc2)CC2CCOCC2)c1", "inhibition, %": 84}
{"smilesRecord": "O=S(=O)(c1ccccc1)N(CCN(Cc1c[nH]cn1)c1ccccc1)Cc1ccccc1", "inhibition, %": 7}
{"smilesRecord": "Cn1cnc(S(=O)(=O)N(CCN(Cc2cncn2C)c2ccc(C#N)cc2)CCn2cccc2)c1", "inhibition, %": 56}
{"smilesRecord": "O=S(=O)(c1ccc2ccccc2c1)N(CCN(Cc1c[nH]cn1)c1ccccc1)Cc1ccccc1", "inhibition, %": 0}

Here is another molecule to look at.
Entry under test: Cn1cnc(S(=O)(=O)N(CCN(Cc2cncn2C)c2ccc(C#N)cc2)CC2CCNCC2)c1 . Its inhibition was 5

###

target: Protein farnesyltransferase (PFT) (Plasmodium falciparum) (UniProt Q5EI73+Q5EI74); assay: Inhibition of Plasmodium falciparum PFT at 50 nM
Could you label it true (1) if measured inhibition is 50% or higher, and false (0) otherwise?

{"smilesRecord": "C=C(Br)CN(CCN(Cc1cncn1C)c1ccc(C#N)cc1)S(=O)(=O)c1cn(C)cn1", "labelValue": "true (1)"}
{"smilesRecord": "Cn1cnc(S(=O)(=O)N(CCN(Cc2cncn2C)c2ccc(C#N)cc2)Cc2ccc(-c3ccccc3)cc2)c1", "labelValue": "false (0)"}
{"smilesRecord": "Cc1ccccc1CN(CCN(Cc1cncn1C)c1ccc(-c2ccccc2)cc1)S(=O)(=O)c1cn(C)cn1", "labelValue": "true (1)"}
{"smilesRecord": "Cn1cnc(S(=O)(=O)N(CCN(Cc2cncn2C)c2ccc(C#N)cc2)Cc2ccc(C#N)cc2)c1", "labelValue": "false (0)"}
{"smilesRecord": "CC(=O)N1CCC(CN(CCN(Cc2cncn2C)c2ccc(C#N)cc2)S(=O)(=O)c2cn(C)cn2)CC1", "labelValue": "false (0)"}

Lab note: next compound to report on.
Given the entry CC(C)C(=O)N1CCC(CN(CCN(Cc2cncn2C)c2ccc(C#N)cc2)S(=O)(=O)c2cn(C)cn2)CC1 , answer whether its inhibition meets or surpasses 50%.
true (1)

###

biological target: Protein farnesyltransferase (PFT) (Plasmodium falciparum) (UniProt Q5EI73+Q5EI74); experiment: Inhibition of Plasmodium falciparum PFT at 50 nM
readout: inhibition (%)
Provide the reading as a plain figure in %.

Sample answers from the record:
{"smilesRecord": "O=S(=O)(c1cccc2cccnc12)N(CCN(Cc1c[nH]cn1)c1ccccc1)Cc1ccccc1", "tgt": "Protein farnesyltransferase (PFT) (Plasmodium falciparum) (UniProt Q5EI73+Q5EI74)", "endpointUnit": "%", "inhibition": 0}
{"smilesRecord": "C=C(C)CN(CCN(Cc1cncn1C)c1ccc(C#N)cc1)S(=O)(=O)c1cn(C)cn1", "tgt": "Protein farnesyltransferase (PFT) (Plasmodium falciparum) (UniProt Q5EI73+Q5EI74)", "endpointUnit": "%", "inhibition": 77}
{"smilesRecord": "Cn1cnc(S(=O)(=O)N(CCN(Cc2c[nH]cn2)c2ccc(Br)cc2)Cc2ccccc2)c1", "tgt": "Protein farnesyltransferase (PFT) (Plasmodium falciparum) (UniProt Q5EI73+Q5EI74)", "endpointUnit": "%", "inhibition": 80}

Then this compound:
Documented inhibition of Cn1cnc(S(=O)(=O)N(CCN(Cc2cncn2C)c2ccc(C#N)cc2)CC(=O)NC(C)(C)C)c1 : 6
